Tested on: SNB-19 CNS
PROCEDURE SUMMARY: NCI tumour cell line growth inhibition, 48 h; in the data active = GI50 below about 0.43 µM; inactive = the rest
Form entry, call: pick from active, inactive

Hi, sorry to bother you, what did the test record for Nc1c(C(=O)Nc2cccc(Cl)c2Cl)sc2nc3c(cc12)C(=O)CCC3 ?
inactive

Same thing, different compound: O=C1C(Cl)=C(Nc2cccc(O)c2)C(=O)N1Cc1ccc(Cl)cc1Cl
inactive

Same thing, different compound: O=C1OCC2=C1C(c1ccccc1)c1cc3c(cc1N2CCO)OCCO3 (stereo not given)
inactive

Same thing, different compound: Cc1c(Cl)cccc1NC(=O)c1sc2nc3c(cc2c1N)CCCCC3
active

Same thing, different compound: C=C1C(=O)O[C@H]2[C@H]1CC/C(COC(=O)NCc1ccc(Cn3c(=O)sn(-c4ccccc4)c3=O)cc1)=C\CC[C@@]1(C)O[C@@H]21
inactive

Same thing, different compound: CCC[CH2][Sn]1([CH2]CCC)[O]CC(C)[O]1 (stereo not given)
inactive

Same thing, different compound: COc1cc(NC(=O)C2=C(N3CCOCC3)/C(=C/c3ccc(Cl)cc3)CC2)cc(OC)c1OC
inactive

Same thing, different compound: COc1c(B(O)O)cc(F)cc1-c1nc2ccc3[nH]ncc3c2c2c1CCCC2
inactive

Same thing, different compound: O=c1oc2c(C(F)(F)F)cccc2cc1-c1csc(Nc2ccc(OCCF)cc2)n1
active

Same thing, different compound: CC1(C)C(=O)/C(=C\c2cccnc2)C[C@]2(C)[C@H]3CC[C@@H]4[C@@H](C(=O)/C=C/c5ccncc5)CC[C@@]4(C)[C@]3(C)CC[C@@H]12
inactive

---

Tested on: HL-60(TB) leukemia
PROCEDURE SUMMARY: NCI tumour cell line growth inhibition, 48 h
Provide the recorded TGI for the entries that follow.
Entry rule: numbers only, all in µM.

Quick one: TGI of COc1ccc(Cn2cc3c(c2-c2cc(OC)c(OC)c(OC)c2)CCc2cnoc2-3)cc1 ?
0.647

Same thing, different compound: C=C(C(=O)O[C@H]1C(=O)C2=C(C)CCC3C(=C)C(=O)O[C@@H]3C2[C@]1(C)O)C1CC[C@]2(C)CCCC(=C)[C@H]2C1 (some centres undefined)
4.35

Same thing, different compound: CC1(C)C(=O)/C(=C\c2cccnc2)C[C@]2(C)[C@H]3CC[C@@H]4[C@@H](C(=O)/C=C/c5ccncc5)CC[C@@]4(C)[C@]3(C)CC[C@@H]12
6.35

---

Tested on: OVCAR-8 ovarian
PROCEDURE SUMMARY: NCI tumour cell line growth inhibition, 48 h; in the data active means GI50 below about 0.43 µM; inactive means the rest
Form entry, call: pick from active, inactive

Hi, sorry to bother you, what did the test record for O=C1C(Cl)=C(Nc2cccc(C(F)(F)F)c2)C(=O)N1Cc1ccc(Cl)cc1 ?
inactive

Same thing, different compound: O=C(/C=C\c1cccc2ccccc12)c1cccc2ccccc12
inactive

Same thing, different compound: CN(C)CCCn1c(-c2nonc2N)nc2cnccc21
inactive

Same thing, different compound: O=C(CCc1ccc(O)cc1)N/N=C/c1cc(Br)ccc1O
inactive

Same thing, different compound: O=c1oc2c(C(F)(F)F)cccc2cc1-c1csc(Nc2ccc(OCCF)cc2)n1
active

Same thing, different compound: CC(=O)c1cc(O)c2ccccc2c1O
inactive

Same thing, different compound: O=C1C(Cl)=C(Nc2cccc(O)c2)C(=O)N1Cc1ccc(Cl)cc1Cl
inactive

Same thing, different compound: CS(=O)(=O)N(c1cc(-c2ccc3ncnc(Nc4cccc(Cl)c4)c3c2)cnc1Cl)S(C)(=O)=O
inactive

Same thing, different compound: COc1ccc(Cn2cc3c(c2-c2cc(OC)c(OC)c(OC)c2)CCc2cnoc2-3)cc1
inactive

Same thing, different compound: C[C@@H]1COCCN1c1cc(C2(O)C[C@H]3CC[C@@H](C2)O3)c2cnn(-c3ccn[nH]3)c2n1 (stereo not given in full)
active

The measurements presented in this section are drawn from PubChem BioAssay (NCI).
